ENDPOINT_NAME: melting point

INSERT INTO assay_data (compound, endpoint_value) VALUES
  ('CN(Cc1nc2ccccc2c2ccn(S(=O)(=O)c3ccccc3)c12)c1ccccc1 [Ie]', '146 to 148 °C');

Look up melting point for this compound: O=S(=O)(c1ccccc1)n1ccc2c3ccccc3nc(CN(Cc3nc4ccccc4c4ccn(S(=O)(=O)c5ccccc5)c34)c3ccccc3)c21 [Ii]
188 to 190 °C

Also check c1ccc2c(c1)nc(CN1CCOCC1)c1[nH]ccc12 [Ih]
148 to 150 °C

###

- Test system: Plasmodium falciparum 3D7 strain
- PROCEDURE_DETAILS: Anti-malarial screen, parasite growth by SybrGreen staining
- Type: cell-based
- CONDITION_DESCRIPTION: Plasmodium falciparum, 3D7; serial dilution from 10 μM to 1 nM, 60 hours incubation, triplicates
pEC50: −log10 of the molar value.
ENDPOINT_NAME: pEC50

Consider the following illustrative entries.
INSERT INTO measurements (smiles_code, tested_target, endpoint_value) VALUES
  ('c1ccc(N(Cc2nc3ccccc3c3cc[nH]c23)Cc2nc3ccccc3c3cc[nH]c23)cc1', 'Plasmodium falciparum 3D7 strain', '< 5.00'),
  ('CCN(CC)Cc1nc2ccccc2c2cc[nH]c12', 'Plasmodium falciparum 3D7 strain', 5.07),
  ('COc1ccc(N(C)Cc2nc3ccccc3c3ccn(S(=O)(=O)c4ccccc4)c23)cc1', 'Plasmodium falciparum 3D7 strain', '< 5.00'),
  ('CN(Cc1nc2ccccc2c2ccn(S(=O)(=O)c3ccccc3)c12)c1ccccc1', 'Plasmodium falciparum 3D7 strain', '< 5.00'),
  ('CN(Cc1nc2ccccc2c2cc[nH]c12)c1ccccc1', 'Plasmodium falciparum 3D7 strain', 5.06);

Continue with the next compound.
Look up pEC50 for this compound: `O=Cc1nc2ccccc2c2ccn(S(=O)(=O)c3ccccc3)c12`
< 5.00

###

The following compounds are shown together with reported melting point values.

INSERT INTO measurements (compound, endpoint_value) VALUES
  ('O=S(=O)(c1ccccc1)n1ccc2c3ccccc3nc(CN3CCOCC3)c21 [Ig]', '138 to 140 °C'),
  ('CN(Cc1nc2ccccc2c2cc[nH]c12)c1ccccc1 [If]', '139 to 141 °C'),
  ('c1ccc(N(Cc2nc3ccccc3c3cc[nH]c23)Cc2nc3ccccc3c3cc[nH]c23)cc1 [Ij]', '242 to 244 °C'),
  ('COc1ccc(N(C)Cc2nc3ccccc3c3ccn(S(=O)(=O)c4ccccc4)c23)cc1 [Ik]', '48 to 50 °C');

Look up melting point for this compound: O=S(=O)(c1ccccc1)n1ccc2c3ccccc3nc(CN(CCO)CCO)c21 [Ic]
98 to 99 °C

###

- Test system: Plasmodium falciparum 3D7 strain
- PROCEDURE_DETAILS: Anti-malarial screen, parasite growth by SybrGreen staining
- Type: cell-based
- CONDITION_DESCRIPTION: Plasmodium falciparum, 3D7; serial dilution from 10 μM to 1 nM, 60 hours incubation, triplicates
Hi! Could you tag entries with EC50 below 700 nM as Satisfied, and those at or above as Not satisfied? Much appreciated.

INSERT INTO assay_data (compound, class_name) VALUES
  ('O=S(=O)(c1ccccc1)n1ccc2c3ccccc3nc(CN(CCO)CCO)c21 [Ic]', 'Not satisfied'),
  ('O=S(=O)(c1ccccc1)n1ccc2c3ccccc3nc(CN(Cc3nc4ccccc4c4ccn(S(=O)(=O)c5ccccc5)c34)c3ccccc3)c21 [Ii]', 'Not satisfied'),
  ('O=S(=O)(c1ccccc1)n1ccc2c3ccccc3nc(CN3CCOCC3)c21 [Ig]', 'Not satisfied');

Take the compound CCN(CC)CCCC(C)N(C)Cc1nc2ccccc2c2cc[nH]c12 (stereo not drawn) [Im] and say whether its EC50 is less than 700 nM.
Satisfied

Also check c1ccc2c(c1)nc(CN1CCOCC1)c1[nH]ccc12 [Ih]
Not satisfied

Also check CCN(CC)Cc1nc2ccccc2c2ccn(S(=O)(=O)c3ccccc3)c12 [Ia]
Satisfied

Also check OCCN(CCO)Cc1nc2ccccc2c2cc[nH]c12 [Id]
Not satisfied

Also check COc1ccc(N(C)Cc2nc3ccccc3c3cc[nH]c23)cc1 [Il]
Not satisfied

Also check Cc1nc2ccccc2c2[nH]ccc12 [In, 4-methyl-1H-pyrrolo[3,2-c]quinoline]
Not satisfied
